- system_name: hSSTR2 (Homo sapiens (Human))
- Sequence (P30874 whole entry): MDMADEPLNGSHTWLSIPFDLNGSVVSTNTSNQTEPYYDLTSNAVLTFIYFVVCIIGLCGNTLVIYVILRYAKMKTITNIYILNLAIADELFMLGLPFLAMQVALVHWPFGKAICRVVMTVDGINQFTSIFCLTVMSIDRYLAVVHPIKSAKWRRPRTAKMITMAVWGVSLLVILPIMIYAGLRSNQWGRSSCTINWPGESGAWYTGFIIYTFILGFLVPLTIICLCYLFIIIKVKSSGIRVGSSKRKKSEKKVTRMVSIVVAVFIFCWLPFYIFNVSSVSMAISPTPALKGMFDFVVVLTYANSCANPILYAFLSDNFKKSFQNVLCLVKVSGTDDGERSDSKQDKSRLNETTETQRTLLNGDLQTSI
- test_protocol: Intracellular calcium mobilization assay (FLIPR Calcium 4), hSSTR2;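 also: agonist activity read as intracellular calcium rise in cells expressing human SSTR2, loaded with a calcium-sensitive dye for 60 min at 37 °C, measured by FLIPR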
- Type: cell-based
- details: read-out: hSSTR2 % Emax ± SEM
Bridge positions count the residues as written; N and C are the ends. Square brackets hold non-standard residues; d marks the D form. Peptide text beside a SMILES is read from it. * marks the point of attachment. X2 = CN1C[C@H](CSCC(=O)*)C[C@@H]2c3cccc4[nH]cc(c34)C[C@H]21; dDab = NCC[C@@H](N)C(=O)O
Consider the following compounds; for each one, report its Emax.
Enter your answer as a number in %; do not include the unit.

Prompt: # Emax lookup, item CC(=O)N(CCCNC(CN[C@@H]1CCCCNC(=O)[C@H](Cc2ccc(F)cc2)NC(=O)[C@H]([C@@H](C)O)NC(=O)[C@H](CCCCN)NC(=O)[C@@H](Cc2c[nH]c3ccccc23)NC(=O)[C@H](Cc2ccccc2)NC(=O)[C@H](Cc2ccccc2)NC(=O)[C@H](CCCNC(=N)N)NC1=O)Cc1ccc(O)cc1)C[C@@H]1C[C@@H]2c3cccc4[nH]cc(c34)C[C@H]2N(C)C1 (single isomer, unassigned) [Compound 28A]
Completion: 109

Prompt: # Emax lookup, item C[C@@H](O)[C@@H]1NC(=O)[C@H](CCCCN)NC(=O)[C@@H](Cc2c[nH]c3ccccc23)NC(=O)[C@H](Cc2ccccc2)NC(=O)[C@H](Cc2ccccc2)NC(=O)[C@H](CCCNC(=N)N)NC(=O)[C@H](NC[C@H](Cc2ccc(O)cc2)NC(=O)CSC[C@@H]2C[C@@H]3c4cccc5[nH]cc(c45)C[C@H]3N(C)C2)CCCCNC(=O)[C@H](Cc2ccc(O)cc2)NC1=O [Compound 33]
Completion: 95.7

Prompt: # Emax lookup, item C[C@@H](O)[C@@H]1NC(=O)[C@H](CCCCN)NC(=O)[C@@H](Cc2c[nH]c3ccccc23)NC(=O)[C@H](Cc2ccncc2)NC(=O)[C@H](Cc2ccccc2)NC(=O)[C@H](CCCNC(=N)N)NC(=O)[C@H](NCCS(=O)(=O)C[C@@H]2C[C@@H]3c4cccc5[nH]cc(c45)C[C@H]3N(C)C2)CCCCNC(=O)[C@H](Cc2ccc(O)cc2)NC1=O [Compound 20]
Completion: 100

Prompt: # Emax lookup, item C[C@@H](O)[C@@H]1NC(=O)[C@H](CCCCN)NC(=O)[C@@H](Cc2c[nH]c3ccccc23)NC(=O)[C@H](Cc2ccccc2)NC(=O)[C@H](Cc2ccccc2)NC(=O)[C@H](CCCNC(=N)N)NC(=O)[C@H](NC[C@H](Cc2ccc(O)cc2)NC(=O)CCN(C[C@@H]2C[C@@H]3c4cccc5[nH]cc(c45)C[C@H]3N(C)C2)S(C)(=O)=O)CCCCNC(=O)[C@H](Cc2ccc(F)cc2)NC1=O [Compound 42]
Completion: 78.6

Prompt: # Emax lookup, item C[C@@H](O)[C@@H]1NC(=O)[C@H](CCCCN)NC(=O)[C@@H](Cc2c[nH]c3ccccc23)NC(=O)[C@H](Cc2ccccc2)NC(=O)[C@H](Cc2ccccc2)NC(=O)[C@H](CCCNC(=N)N)NC(=O)[C@H](NC(=O)CSC[C@@H]2C[C@@H]3c4cccc5[nH]cc(c45)C[C@H]3N(C)C2)CCNC(=O)[C@H](Cc2ccccc2)NC1=O [Reference Compound A, reference compound] (X2-[dDab]RFF[dW]KTF; lactam 1-C)
Completion: 86.2

This collection of values is drawn from patent US8952128B2.
